- assay.protocol: Solubility assessment in solvents (visual)
- Format: physicochemical
- condition.label: ethanol, 50 °C, organic solvent or mixture, thermodynamic from solid, Ethanol, 5 vol, 50° C.; read-out: Observations from solubility assessment
recorded.endpoint: solubility

IN: Record request: solubility value, item O=C1C[C@H](c2cc(F)c(F)c(F)c2)CN1Cn1ncnc1Cl
OUT: > 200 mg/mL

====

- assay.protocol: Solubility assessment in solvents (visual)
- Assay type: physicochemical
- condition.label: toluene, 25 °C, organic solvent or mixture, thermodynamic from solid, Toluene, 5 vol, 25° C.; read-out: Observations from solubility assessment
recorded.endpoint: solubility

IN: Could you share which solubility value was measured for O=C1C[C@H](c2cc(F)c(F)c(F)c2)CN1Cn1ncnc1Cl ?
OUT: < 200 mg/mL
